tested on: UO-31 renal; experiment: NCI tumour cell line growth inhibition, 48 h
Quantity Name: TGI

NS(=O)(=O)c1ccc(NCc2nc3ccccc3[nH]2)cc1    > 100 µM
CCOC(=O)C(=O)Nc1nc2ccc(C)cc2s1    > 100 µM
CC1(C2CCC3(C)C(C2)C3Sc2ccccc2)OCCO1 (stereo unspecified)    31.4 µM
O=C1C=CC(=O)c2c(O)c(N(CCCl)CCCl)c(Cl)c(O)c21    > 7.1 µM
N#Cc1c(N2CCCC2)nsc1Nc1ccccc1    > 100 µM

The compound listed as `CN1C/C(=C\c2ccc(C(=O)O)cc2)C(=O)/C(=C/c2ccc(C(=O)O)cc2)C1` shows TGI equal to > 100 µM

TGI recorded for this compound, Cc1c(C2CCSc3ccccc3N2)sc2ccccc12 (stereo unspecified) , is > 100 µM

The compound listed as `CSc1c(C)n([O-])c2cc(Cl)c(Cl)cc2[n+]1=O` shows TGI equal to 30.4 µM

The reported TGI of the compound O/N=C1\C(=C\c2ccc3c(c2)OCCO3)CCCC1C(NO)c1ccc2c(c1)OCCO2 (stereo unspecified) was 68.7 µM

Noted for CC1C(c2ccccc2)NC(c2ccccc2)CC1(N)C#N (stereo unspecified) : its TGI reads > 100 µM

Briefly, TGI measured for `CS(=O)(=O)CCNCc1ccoc1-c1ccc2ncnc(Nc3ccc(OCc4ccccc4)cc3)c2c1` : > 25 µM

###

test system: MDA-MB-231 breast; assay: NCI tumour cell line growth inhibition, 48 h
Where a SMILES comes first, the peptide text is derived from it. [ ]: non-standard residue; d: D form. The star is where a group is joined. Cbz = O=C(OCc1ccccc1)*; Aib = CC(C)(N)C(=O)O
TGI values, listed per item

Completed entries (count: 8):
COc1ccc(/C=C(/c2ccc(OC)cc2)c2c(Cl)cc(Cl)c(/C(=C\c3ccc(OC)cc3)c3ccc(OC)cc3)c2N=Nc2ccccc2)cc1    > 100 µM
O=S(=O)(Nc1ccc(Cl)c(Cl)c1)c1ccc(-c2cnc(C3CC3)o2)cc1    15.8 µM
Cc1c2ccccc2c(C)n2c1nc1cc(Cl)c(Cl)cc12    > 100 µM
O=C(NNc1nc(-c2ccccc2)cs1)Nc1ccccc1    54.4 µM
O=C(/C=C/c1ccc(Cl)cc1Cl)c1ccc(Cl)cc1Cl    27 µM
O=C(N/N=C/c1ccc(N(CCCl)CCCl)cc1)c1ccc(C(=O)N/N=C/c2ccc(N(CCCl)CCCl)cc2)cc1    > 100 µM
COc1ccc(/N=N/C(=NNC(=O)c2ccc(C)cc2)c2ccc(N(C)C)cc2)cc1    > 100 µM
CS(=O)(=O)CCNCc1ccoc1-c1ccc2ncnc(Nc3ccc(OCc4ccccc4)cc3)c2c1    > 25 µM

Moving on to another molecule below.
Query CC(C)(NC(=O)C(C)(C)NC(=O)OCc1ccccc1)C(=O)O (Cbz-[Aib]-[Aib]-OH) yields TGI of > 100 µM

###

TGI values for the molecules below.
system: HCC-2998 colon; experiment: NCI tumour cell line growth inhibition, 48 h
The answer is to be given in µM; state only the numeric part.

O/N=C1\C(=C\c2ccc3c(c2)OCCO3)CCCC1C(NO)c1ccc2c(c1)OCCO2 (configuration not stated)    65.3

Measured TGI (HCC-2998 colon), entry `COc1ccc(/C=C/C(=O)c2ccc(Nc3nc(Nc4ccc(F)cc4)nc(Nc4ccc(F)cc4)n3)cc2)cc1` : 53.8

Tested system HCC-2998 colon; TGI recorded for `CC(=O)[O][Hg][c]1s[c]([Hg][O]C(C)=O)[c]([Hg][O]C(C)=O)[c]1[Hg][O]C(C)=O` was 40.1

Where these numbers come from: PubChem BioAssay (NCI)
